# measurement.target: Interleukin-1 receptor-associated kinase 1 (Homo sapiens)
# Sequence (P51617 whole entry, the tested form may be a part): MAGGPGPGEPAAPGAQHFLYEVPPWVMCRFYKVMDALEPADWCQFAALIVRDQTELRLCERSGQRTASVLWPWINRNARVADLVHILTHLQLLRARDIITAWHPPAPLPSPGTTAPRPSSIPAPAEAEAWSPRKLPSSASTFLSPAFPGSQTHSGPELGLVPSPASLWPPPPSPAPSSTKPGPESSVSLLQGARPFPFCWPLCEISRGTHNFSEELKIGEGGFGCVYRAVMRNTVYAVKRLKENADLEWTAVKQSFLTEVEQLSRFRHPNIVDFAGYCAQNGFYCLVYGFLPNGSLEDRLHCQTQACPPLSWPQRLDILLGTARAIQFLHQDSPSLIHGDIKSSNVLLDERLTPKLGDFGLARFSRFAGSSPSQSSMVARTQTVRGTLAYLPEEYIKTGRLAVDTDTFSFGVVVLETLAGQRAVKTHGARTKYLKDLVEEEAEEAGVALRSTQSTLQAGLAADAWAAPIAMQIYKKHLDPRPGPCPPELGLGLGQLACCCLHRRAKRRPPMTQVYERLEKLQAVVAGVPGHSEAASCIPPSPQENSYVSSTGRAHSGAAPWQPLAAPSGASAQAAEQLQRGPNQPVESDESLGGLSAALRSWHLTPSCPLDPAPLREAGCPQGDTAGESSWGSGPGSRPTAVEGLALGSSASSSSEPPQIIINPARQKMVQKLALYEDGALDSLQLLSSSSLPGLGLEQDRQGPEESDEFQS
# assay.explanation: Inhibition of recombinant human N-terminal GST-tagged IRAK1 (194 to 712 residues) expressed in baculovirus expression system using 5-FAM-KKKVSRSGLYRSPSMPENLNRPR-COOH as substrate measured after 240 mins by mobility shift assay
quantity.measured: IC50 (nM)
Give the value, in units of nM, as a plain number.

-- ask Determine its reported IC50: CC(C)c1ccn2ncnc(N[C@H]3CC[C@@H](N4CCN(C(=O)CCC(=O)N5CCC(CCN6CCN(c7ccc8c(c7)C(=O)N(C7CCC(=O)N(C)C7=O)C8=O)CC6)CC5)CC4)CC3)c12 (some centres undefined)
-- reply 3400

-- ask Determine its reported IC50: CC(C)c1ccn2ncnc(N[C@H]3CC[C@@H](N4CCN(C(=O)CCC(=O)N5CCC(CCN6CCN(c7ccc8c(c7)C(=O)N(C7CCC(=O)NC7=O)C8=O)CC6)CC5)CC4)CC3)c12 (some centres undefined)
-- reply 2300

-- ask Determine its reported IC50: CC(C)c1ccn2ncnc(N[C@H]3CC[C@@H](N4CCN(C(=O)CCC(=O)N5CCC(CN6CCN(c7ccc8c(c7)C(=O)N(C7CCC(=O)NC7=O)C8=O)CC6)CC5)CC4)CC3)c12 (some centres undefined)
-- reply 5600

-- ask Determine its reported IC50: `CC(=O)N1CCN([C@H]2CC[C@@H](Nc3ncnc4[nH]cc(C(C)C)c34)CC2)CC1`
-- reply 1400
